System: Strep. pyogenes EES 61
protocolNotes: Second in vitro antibacterial test, MIC (BHIB)
Assay type: cell-based
measurementConditions: Brain Heart Infusion Broth (BHIB)
reportedEndpoint: MIC (µg/mL)

CCCC(N)C(=O)NC1CCN(c2cc3c(cc2F)c(=O)c(C(=O)O)cn3-c2ccc(F)cc2F)C1 (stereo not shown) [Example 26b] ... 1.56
Cl.NCC(=O)N[C@@H](Cc1ccccc1)C(=O)NC1CCN(c2cc3c(cc2F)c(=O)c(C(=O)O)cn3-c2ccc(F)cc2F)C1 (stereo partly shown) [Example 26jj] ... 32
CCCC(N)C(=O)NC1CCN(c2nc3c(cc2F)c(=O)c(C(=O)O)cn3C2CC2)C1 (stereo not shown) [Example 26p] ... 3.1
CC(C)CC(N)C(=O)NC1CCN(c2nc3c(cc2F)c(=O)c(C(=O)O)cn3C2CC2)C1 (stereo not shown) [Example 26o] ... 3.1
CCCC(N)C(=O)NC1CCN(c2cc3c(cc2F)c(=O)c(C(=O)O)cn3-c2ccc(F)cc2)C1 (stereo not shown) [Example 26h] ... 1.56
Cl.Cl.NCCCC[C@H](N)C(=O)NC1CCN(c2nc3c(cc2F)c(=O)c(C(=O)O)cn3-c2ccc(F)cc2F)C1 (stereo partly shown) ... 100
CCC[C@H](N)C(=O)NC1CCN(c2nc3c(cc2F)c(=O)c(C(=O)O)cn3CC)C1 (stereo partly shown) [Example 26ff] ... 6.2
